- Tested on: human plasma
- assay-remarks: Ultracentrifugation (UC) plasma protein binding assay, fraction unbound in plasma (fup)
- conditions: point estimate of fraction unbound in plasma, UC assay Level4
Quick list: Fup.point per entry.
Reply with the value as a number alone.

Solved cases (2 shown):
compound: FC(F)C(F)(F)COCC1CO1 (centres unmarked)
subject-of-test: human plasma
Fup.point: 0.762

compound: OCC(F)(F)C(F)(F)C(F)(F)C(F)(F)C(F)(F)C(F)F
subject-of-test: human plasma
Fup.point: 0.0549

What the record says about C=CC(=O)OCC(F)(F)C(F)(F)C(F)(F)C(F)(F)C(F)(F)C(F)(F)C(F)(F)C(F)F [1H,1H,9H-Perfluorononyl acrylate] : Fup.point is 0.315

The compound listed as C=C(C)C(=O)OCC(F)(F)C(F)(F)C(F)(F)C(F)F [1H,1H,5H-Perfluoropentyl methacrylate] shows Fup.point equal to 0.249

Kindly note the recorded Fup.point for CN(C(=O)C(F)(F)C(F)(F)C(F)(F)F)[Si](C)(C)C , which is 0.545

----------
# Stability (T5hr/ T1hr), Run-specific Avg listing for each entry below
- Test system: human plasma
- assay-remarks: Chemical stability in plasma over the UC assay time course (T5hr/T1hr)
- conditions: average of one UC run (run date in line above)
# respond with the number and nothing more

These recorded examples may help you get a feel for the data.
compound: OCCCC(F)(F)C(F)(F)C(F)(F)C(F)(F)C(F)(F)C(F)(F)C(F)(F)C(F)(F)F
subject-of-test: human plasma
Stability (T5hr/ T1hr), Run-specific Avg: 0.894

compound: FC(F)(F)COC(OCC(F)(F)F)OCC(F)(F)F
subject-of-test: human plasma
Stability (T5hr/ T1hr), Run-specific Avg: 0.660

compound: OCC(F)(F)C(F)(F)C(F)(F)C(F)F
subject-of-test: human plasma
Stability (T5hr/ T1hr), Run-specific Avg: 0.858

compound: OCCCC(F)(F)C(F)(F)C(F)(F)F
subject-of-test: human plasma
Stability (T5hr/ T1hr), Run-specific Avg: 0.890

compound: N=C(N)C(F)(F)C(F)(F)C(F)(F)C(F)(F)C(F)(F)C(F)(F)C(F)(F)F
subject-of-test: human plasma
Stability (T5hr/ T1hr), Run-specific Avg: 0.890

compound: OCC(F)(F)C(F)(F)C(F)(F)C(F)(F)C(F)(F)C(F)(F)CO
subject-of-test: human plasma
Stability (T5hr/ T1hr), Run-specific Avg: 0.913

compound: OCC(F)(F)C(F)(F)C(F)(F)C(F)(F)C(F)(F)C(F)(F)C(F)(F)C(F)(F)CO [1H,1H,10H,10H-Perfluorodecane-1,10-diol]
subject-of-test: human plasma
Stability (T5hr/ T1hr), Run-specific Avg: 0.958

compound: OCC(F)(F)C(F)(F)C(F)(F)C(F)(F)C(F)(F)C(F)F
subject-of-test: human plasma
Stability (T5hr/ T1hr), Run-specific Avg: 0.870

The compound identified as CN(C(=O)C(F)(F)C(F)(F)C(F)(F)F)[Si](C)(C)C registered its Stability (T5hr/ T1hr), Run-specific Avg at 0.935

Summary for this compound, Cc1ccc(S(=O)(=O)OCC(F)(F)C(F)(F)C(F)(F)C(F)(F)C(F)(F)C(F)F)cc1 : Stability (T5hr/ T1hr), Run-specific Avg is 0.983

So for O=C(CC(=O)C(F)(F)C(F)(F)C(F)(F)F)c1cccs1 , the logged Stability (T5hr/ T1hr), Run-specific Avg turned out to be 1.277

Reported Stability (T5hr/ T1hr), Run-specific Avg ( FC(F)(F)C(F)(F)C(F)(F)C(F)(F)CCI [1H,1H,2H,2H-Perfluorohexyl iodide] ) = 0.871

The compound identified as FC(F)(I)C(F)(F)C(F)(F)C(F)(F)C(F)(F)C(F)(F)I registered its Stability (T5hr/ T1hr), Run-specific Avg at 0.687

----------
- assay-remarks: In vitro-in vivo extrapolation (IVIVE) to Css and administered equivalent dose (AED)
- Parameters: species or system human
- conditions: human steady-state plasma concentration, assuming 1 mg/kg/day dosage
Reported log10 Css values follow for various molecules
The base-10 logarithm of Css, taken with Css in µM, is what appears here.

Some molecules with known log10 Css results, for comparison:
molecule: NS(=O)(=O)C(F)(F)C(F)(F)C(F)(F)C(F)(F)C(F)(F)C(F)(F)C(F)(F)C(F)(F)F [Perfluorooctanesulfonamide, reference compound]
log10 Css: 0.80

molecule: N.O=C(O)C(F)(F)C(F)(F)C(F)(F)C(F)(F)C(F)(F)C(F)(F)C(F)(F)F [Ammonium perfluorooctanoate (PFOA), Ammonium perfluorooctanoate, reference compound]
log10 Css: 2.83

molecule: OCC(F)(F)OC(F)(F)C(F)(F)OC(F)(F)C(F)(F)OC(F)(F)CO
log10 Css: 0.18

molecule: NC(=O)C(F)(F)C(F)(F)C(F)(F)C(F)(F)C(N)=O [Octafluoroadipamide]
log10 Css: -0.47

molecule: NC(=O)C(F)(F)C(F)(F)C(F)(F)C(F)(F)F [Nonafluoropentanamide]
log10 Css: -0.64

Could you now consider this next molecule?
O=S(=O)([O-])C(F)(F)C(F)(F)C(F)(F)C(F)(F)C(F)(F)C(F)(F)C(F)(F)C(F)(F)F.[K+] [Potassium perfluorooctanesulfonate, reference compound] yielded log10 Css of 1.50

----------
- assay-remarks: Hepatic metabolic stability (hepatocyte clearance) assay, substrate depletion
- Type: in vitro ADME, human
- conditions: both sexes, human, s9, Bayesian analysis median, 1 μM assay concentration (Table S9); read-out: Clint.1.Med
The entries below come with measured hepatocyte CLint at 1 μM values attached.
Numeric answer only, unit µL/min/1e6 cells assumed.

Answered cases to consult:
compound: OCC(F)(F)C(F)(F)C(F)(F)C(F)(F)C(F)(F)C(F)(F)C(F)(F)C(F)(F)CO [1H,1H,10H,10H-Perfluorodecane-1,10-diol]
numeric-result: 115
--
compound: OCCC(F)(F)C(F)(F)C(F)(F)C(F)(F)F [4:2 Fluorotelomer alcohol]
numeric-result: 306
--
compound: OCC(F)(F)C(F)(F)C(F)(F)C(F)(F)C(F)(F)C(F)(F)CO [1H,1H,8H,8H-Perfluorooctane-1,8-diol]
numeric-result: 5.03

The recorded hepatocyte CLint at 1 μM for entry NC(=O)C(F)(F)C(F)(F)C(F)(F)C(F)(F)F [Nonafluoropentanamide] equals 88.7

----------
This listing pairs compounds with measured Fup.Med.
- System: human plasma
- assay-remarks: Ultracentrifugation (UC) plasma protein binding assay, fraction unbound in plasma (fup)
- conditions: median fraction unbound in plasma, UC assay Level4
# respond with the number and nothing more

Examples with their reported Fup.Med follow.
compound: C=C(C)C(=O)OCC(F)(F)C(F)(F)C(F)(F)C(F)F [1H,1H,5H-Perfluoropentyl methacrylate]
Fup.Med: 0.267

compound: OCCC(F)(F)C(F)(F)C(F)(F)C(F)(F)C(F)(F)C(F)(F)F
Fup.Med: 0.232

compound: NC(O)(C(F)(F)F)C(F)(F)F
Fup.Med: 0.867

compound: C=C(C)C(=O)OCCC(F)(F)C(F)(F)C(F)(F)C(F)(F)C(F)(F)C(F)(F)F [6:2 Fluorotelomer methacrylate]
Fup.Med: 0.102

compound: FC(F)(F)C(F)(F)CNCC(F)(F)C(F)(F)F
Fup.Med: 0.0412

compound: NCC(F)(F)C(F)(F)C(F)(F)C(F)(F)C(F)(F)C(F)(F)C(F)(F)F
Fup.Med: 0.605

compound: NC(=O)C(F)(F)C(F)(F)C(F)(F)C(F)(F)C(N)=O [Octafluoroadipamide]
Fup.Med: 0.864

Form field Fup.Med for item FC(F)(I)C(F)(F)C(F)(F)C(F)(F)I on human plasma: 0.00723

----------
- assay-remarks: In vitro-in vivo extrapolation (IVIVE) to Css and administered equivalent dose (AED)
- Design: species or system human
- conditions: IVIVE; hepatocyte Clint scaled to whole-liver clearance
Rule: Clhep of 20 L/h or more gives Satisfied; anything lower gives Not satisfied.

These recorded examples may help you get a feel for the data.
compound: NC(=O)C(F)(F)C(F)(F)F [Pentafluoropropionamide]
class-label: Not satisfied
//
compound: O=S(=O)([O-])C(F)(F)C(F)(F)C(F)(F)C(F)(F)C(F)(F)C(F)(F)C(F)(F)C(F)(F)F.[K+] [Potassium perfluorooctanesulfonate, reference compound]
class-label: Not satisfied
//
compound: NC(=O)C(F)(F)C(F)(F)C(F)(F)F [Heptafluorobutyramide]
class-label: Satisfied
//
compound: OCCC(F)(F)C(F)(F)C(F)(F)C(F)(F)F
class-label: Satisfied
//
compound: OCC(F)(F)OC(F)(F)C(F)(F)OC(F)(F)C(F)(F)OC(F)(F)CO
class-label: Not satisfied
//
compound: N.O=C(O)C(F)(F)C(F)(F)C(F)(F)C(F)(F)C(F)(F)C(F)(F)C(F)(F)F [Ammonium perfluorooctanoate (PFOA), Ammonium perfluorooctanoate, reference compound]
class-label: Not satisfied

Input: Confirm if Clhep reported for the compound NC(=O)C(F)(F)C(F)(F)C(F)(F)C(F)(F)C(N)=O [Octafluoroadipamide] is 20 L/h or above.
Output: Satisfied

Input: Determine whether measured Clhep meets or exceeds 20 L/h for Cc1ccc(S(=O)(=O)OCC(F)(F)C(F)(F)C(F)(F)C(F)(F)C(F)(F)C(F)F)cc1
Output: Not satisfied

Input: Say whether OCC(F)(F)C(F)(F)C(F)(F)C(F)(F)C(F)(F)C(F)(F)C(F)(F)C(F)(F)CO [1H,1H,10H,10H-Perfluorodecane-1,10-diol] shows Clhep of 20 L/h or more.
Output: Not satisfied

Input: Textbook exercise: given the entry NS(=O)(=O)C(F)(F)C(F)(F)C(F)(F)C(F)(F)C(F)(F)C(F)(F)C(F)(F)C(F)(F)F [Perfluorooctanesulfonamide, reference compound] , state whether its Clhep is greater than or equal to 20 L/h.
Output: Not satisfied

Input: Could you verify whether the entry OCC(F)(F)C(F)(F)C(F)(F)C(F)(F)C(F)(F)C(F)(F)CO shows Clhep of no less than 20 L/h?
Output: Not satisfied

Input: Quick check: does NC(=O)C(F)(F)C(F)(F)C(F)(F)C(F)(F)F [Nonafluoropentanamide] have Clhep greater than or equal to 20 L/h?
Output: Satisfied

Input: Does the reported Clhep for OCC(F)(F)C(F)(F)C(F)(F)CO fall at or above the 20 L/h mark?
Output: Not satisfied
